Target: UniProtKB Q7ZJM1
Sequence (Q7ZJM1 whole entry): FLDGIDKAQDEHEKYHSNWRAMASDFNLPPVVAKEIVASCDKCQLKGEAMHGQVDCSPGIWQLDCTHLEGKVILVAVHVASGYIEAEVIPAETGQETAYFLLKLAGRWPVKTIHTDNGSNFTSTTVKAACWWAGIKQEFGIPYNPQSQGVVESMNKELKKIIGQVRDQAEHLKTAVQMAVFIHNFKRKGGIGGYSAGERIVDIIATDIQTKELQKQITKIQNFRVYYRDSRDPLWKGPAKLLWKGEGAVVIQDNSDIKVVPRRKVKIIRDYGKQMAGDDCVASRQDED
Assay: Inhibition of HIV1 integrase strand transfer activity after 1 hr by gel based assay in presence of magnesium
pIC50: −log10 of the molar value.
property: pIC50

Exam item: Fill in the blank: the reported pIC50 of `O=C(O)/C=C/c1ccc2c(c1)c(=O)c(C(=O)/C=C(\O)C(=O)O)cn2Cc1ccc(F)cc1` is ____.
Marked response: 7.52

I. O=C(O)/C(O)=C/C(=O)c1cn(Cc2ccc(F)cc2)c2ccc(Br)cc2c1=O
II. O=C(O)/C(O)=C/C(=O)c1cn(Cc2ccc(F)cc2)c2ccc(OCc3ccc(F)cc3)cc2c1=O
Exam item: Which is greater in pIC50, the first item I or the second item II ? // return label of chosen record
Marked response: I

* * *

Molecular target: UniProt Q7ZJM1
Assay: Inhibition of HIV1 integrase 3' processing activity after 1 hr by gel based assay in presence of magnesium
pIC50: −log10 of the molar value.
property: pIC50

A. O=C(O)/C=C/c1ccc2c(c1)c(=O)c(C(=O)/C=C(\O)C(=O)O)cn2Cc1ccc(F)cc1
B. O=C(O)/C(O)=C/C(=O)c1cn(Cc2ccc(F)cc2)c2ccc(Br)cc2c1=O
C. O=C(O)/C(O)=C/C(=O)c1cn(Cc2ccc(F)cc2)c2ccc(OCc3ccc(F)cc3)cc2c1=O
Exam item: Your job: order these 3 records by pIC50, ascending. Output the labels ranked as instructed.
Marked response: A, C, B
(A: 5.10, C: 5.52, B: 5.80)
